Numbers sourced from patent US20230137956A1.

Test system: glutathione (GSH)
Experiment: Reactivity Profiling with Glutathione (GSH)
Assay type: in vitro ADME
Details: cell culture medium (IMDM, 10% FBS) with 5 mM glutathione, 25 μM inhibitor, IMDM with 10% FBS, 0.5% DMSO, 25° C., HPLC, read-out: T1/2-GSH
Method: In some embodiments, metabolic stability of the compounds is evaluated according to their reactivity profiles with GSH. 3.5 μL of 5 mM stocking solution of the inhibitors in DMSO was added to 697.5 μL of Iscove's Modified Dulbecco's Medium (IMDM) supplemented with 10% FBS and antibiotic antimycotic solution, with 5 mM glutathione to afford a final concentration of 25 μM inhibitor with 0.5% DMSO. The solution was then immediately placed in the sample tray at 25° C. […]
Below is a list of entries, each paired with its recorded half-life at 25 μM value.

Examples from the recorded data:
C[C@H](C(=O)N(Cc1cc(C2CC2)cc(N2CCCC2)c1)c1ccc(C(=O)O)cc1C1CC1)N(Cc1ccc(F)cc1Cl)S(=O)(=O)c1c(F)c(F)c(F)c(F)c1F    9.23 to 1670 h
C[C@@H](C(=O)N(Cc1cc(C2CC2)cc(C2CC2)c1)c1ccc(C(=O)O)cc1OC1CC1)N(Cc1ccc(F)cc1Cl)S(=O)(=O)c1c(F)c(F)c(F)c(F)c1F    2.37 to 9.23 h

# next molecule below
For the record C[C@@H](C(=O)N(Cc1cc(C2CC2)cc(N2CCCC2)c1)c1ccc(C(=O)O)cc1C1CC1)N(Cc1ccc(F)cc1Cl)S(=O)(=O)c1c(F)c(F)c(F)c(F)c1F , what value of half-life at 25 μM is listed for glutathione (GSH)? 2.37 to 9.23 h
